Assay Remarks: Absorption and emission properties of HBR-binding PYP variants in presence of HBR
Assay type: physicochemical
Test Settings: variant with HBR; fraction
Procedure: pH measurements were performed on a Standard pH meter PHM210 Radiometer Analytical (calibrated with aqueous buffers at pH 4 and 7 or 10) with a Crison 5208 Electrode (Barcelona, Spain). UV/Vis absorption spectra were recorded in 1 cm×1 cm quartz cuvettes (Hellma) on a diode array UV/Vis spectrophotometer (Evolution array, Thermo Scientific). […] The overall emission quantum yields after one-photon excitation φ were calculated from the relation: […]
Observable: Fluorescence quantum yield
Numbers only.

Please look up its Fluorescence quantum yield: Clone 3: best fluorescent HBR-binding PYP variant, SEQ ID NO: 3, residues 94-101 WMIPTSRG (protein, Functional derivative of SEQ ID NO: 48 - Clone 3) MEHVAFGSEDIENTLAKMDDGQLDGLAFGAIQLDGDGNILQYNAAEGDITGRDPKQVIGKNFFKDVAPGTDSPEFYGKFKEGVASGNLNTMFEWMIPTSRGPTKVKVHMKKALSGDSYWVFVKRV
0.09
